Test system: cultured tissue from needle biopsy, Breast DCIS papillary neoplasm
Experiment: dose response study with cumulative cell death on cultured patient biopsy tissue (patient 19055)
Type: cell-based, human
Details: in vitro cultured biopsy sample, patient 19055, Breast DCIS papillary neoplasm
MEASUREMENT_TYPE: overall assessment in standard culture and testing process

INSERT INTO measurements (molecule, value_observed) VALUES
  ('Nc1nc(Cl)nc2c1ncn2[C@@H]1O[C@H](CO)[C@@H](O)[C@@H]1F [Clofarabine]', 'potential benefit'),
  ('COc1cc2c(Oc3ccc4[nH]c(C)cc4c3F)ncnc2cc1OCCCN1CCCC1 [Cediranib]', 'potential benefit'),
  ('CC(=O)O[C@@]12CO[C@@H]1C[C@H](O)[C@@]1(C)C(=O)[C@H](O)C3=C(C)[C@@H](OC(=O)[C@H](O)[C@@H](NC(=O)OC(C)(C)C)c4ccccc4)C[C@@](O)([C@@H](OC(=O)c4ccccc4)[C@H]21)C3(C)C [Docetaxel]', 'potential benefit');
